- Protocol details: photoluminescence quantum yield (fraction); solvent given as SMILES
- Test context: in C1CCOC1

{"Compound": "C(=C\\c1cccc(/C=C/c2c3ccccc3cc3ccccc23)c1)/c1ccncc1", "photoluminescence quantum yield": 0.6}
{"Compound": "CC1=[N+]2C(=C(c3ccccc3)c3ccc(C)n3[B-]2(F)F)C=C1", "photoluminescence quantum yield": 0.25}
{"Compound": "COC(=O)c1ccc2ccc3cccc4ccc1c2c34", "photoluminescence quantum yield": 0.68}
{"Compound": "C(=C\\c1ccc(/C=C/c2c3ccccc3cc3ccccc23)cc1)/c1ccncc1", "photoluminescence quantum yield": 0.34}
{"Compound": "O=C1/C(=C2\\Nc3cc4ccc5cccc6ccc(c3C2=O)c4c56)Nc2cc3ccc4cccc5ccc(c21)c3c45", "photoluminescence quantum yield": 0.0076}
{"Compound": "CCC(CC)COC1=CC2=C3c4cc(OCC(CC)CC)c(-c5ccccc5)n4[B-](F)(F)[n+]4c3n(c3cc(C(C)(C)C)ccc34)[B-](F)(F)[N+]2=C1c1ccccc1", "photoluminescence quantum yield": 0.11}
{"Compound": "N#Cc1ccc2c(c1)CCc1nc(-c3ccc([N+](=O)[O-])cc3)c3c(c1-2)CCc1cc(C#N)ccc1-3", "photoluminescence quantum yield": 0.043}
{"Compound": "CCCCOc1ccc(-c2oc3cc4n(c3c2-c2ccc(OCCCC)cc2)[B-](F)(F)[N+]2=Cc3cc5oc(-c6ccc(OCCCC)cc6)c(-c6ccc(OCCCC)cc6)c5n3[B-](F)(F)[N+]2=C4)cc1", "photoluminescence quantum yield": 0.44}
{"Compound": "COc1ccc(-c2cnc3nn4ccccc4c3n2)cc1", "photoluminescence quantum yield": 0.83}
{"Compound": "COc1ccc(C2=Cc3ccccc3P2(=O)c2ccccc2)cc1 (configuration not stated)", "photoluminescence quantum yield": 0.41}
{"Compound": "CC1=N/C(=C\\c2ccc(C#N)c(N(C)C)c2)C(=O)N1C", "photoluminescence quantum yield": 0.07}
{"Compound": "CN(CC(O)c1cccc(O)c1)c1ccc([N+](=O)[O-])c(C2CC(c3cccc4ccccc34)=NN2c2ccccc2)c1 (configuration not stated)", "photoluminescence quantum yield": 0.27}
{"Compound": "C(#Cc1ccc(-n2c3ccccc3c3ccccc32)cc1)c1ccc(-c2nc(-c3ccc(C#Cc4ccc(-n5c6ccccc6c6ccccc65)cc4)cc3)nc(-c3ccc(C#Cc4ccc(-n5c6ccccc6c6ccccc65)cc4)cc3)n2)cc1", "photoluminescence quantum yield": 0.69}
{"Compound": "O=P1(c2ccccc2)C(c2cccs2)=C(c2cccs2)c2ccccc21 (configuration not stated)", "photoluminescence quantum yield": 0.006}
{"Compound": "COc1cc2c(cc1-c1ccsc1)Cc1c3c(c4c(c1-2)-c1cc(OC)c(-c2ccsc2)cc1C4)C(=O)N(CCC(C)C)C3=O", "photoluminescence quantum yield": 0.55}
{"Compound": "CC1=C(C(C)(C)C)C(C)=[N+]2C1=C(C)c1c(C)c(C(C)(C)C)c(C)n1[B-]2(F)F", "photoluminescence quantum yield": 0.37}
{"Compound": "CCCCCOc1cc2oc(=O)c3c4ccc(O)cc4c4ccc5cccc6c(c1)c2c3c4c56", "photoluminescence quantum yield": 0.27}

====

A collection of compounds and their measured photoluminescence quantum yield
- Protocol details: photoluminescence quantum yield (fraction); solvent given as SMILES
- Test context: in NC=O

{"Compound": "COC(=O)C(Cc1ccc2oc(-c3ccc(N(C)c4ccccc4)cc3)nc2c1)NC(=O)OC(C)(C)C (centres undefined)", "photoluminescence quantum yield": 0.02}
{"Compound": "COC(=O)C(Cc1ccc2oc(-c3ccc(N(C)C)cc3)nc2c1)NC(=O)OC(C)(C)C (centres undefined)", "photoluminescence quantum yield": 0.71}
{"Compound": "COCCOc1cc(C=O)c(OCCOC)cc1C=O", "photoluminescence quantum yield": 0.3}
{"Compound": "Cn1cc(/C=C/C(=O)c2ccccc2)c2ccccc21", "photoluminescence quantum yield": 0.277}
